Test system: GMS-10;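 further: growth inhibition of GMS-10 cells, read out as cell viability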
Test: cells
Assay type: functional, cell-based, Homo sapiens
Details: Homo sapiens, GMS-10
Description: SANGER: Inhibition of human GMS-10 cell growth in a cell viability assay.
Kindly supply the reported IC50 values for the records listed here.

[ask] Param item = CN(C)C(=N)NC(=N)N [METFORMIN] ; retrieve measured IC50.
[reply] > 20000 µM

[ask] Param item = CC(C)CCN1c2nc(Nc3cc(F)c(O)c(F)c3)ncc2N(C)C(=O)C1C (stereo not drawn) ; retrieve measured IC50.
[reply] 3.09 µM

[ask] Param item = CCC/C=C/C=C/C(=O)O[C@H]1/C(=C/C(=O)OC)C[C@H]2C[C@H]([C@@H](C)O)OC(=O)C[C@H](O)C[C@@H]3C[C@H](OC(C)=O)C(C)(C)[C@](O)(C[C@@H]4C/C(=C/C(=O)OC)C[C@H](/C=C/C(C)(C)[C@]1(O)O2)O4)O3 [BRYOSTATIN 1] ; retrieve measured IC50.
[reply] > 0.008 µM

Data origin, for the record: ChEMBL document CHEMBL1201861
